# Assay Name: In vivo tissue distribution of radioactivity after intravenous administration
# Parameters: species or system Sprague Dawley rats
# Details: brain, iv; rat, i.v., 2 min; read-out: Brain (B), Mean % Injected Dose/Gram
Parameter Measured: tissue uptake at 2 min (%ID/g)

[[record]]
molecule = "CC(C[18F])OC(=O)[C@H]1[C@@H](c2ccc(I)cc2)C[C@@H]2CC[C@H]1N2C (stereo partly shown) [[^18 F] FIPIT 8]"
parameter_measured = "tissue uptake at 2 min"
data_value = 0.83


###

# Assay Name: In vivo tissue distribution of radioactivity after intravenous administration
# Set-up: species or system Sprague Dawley rats
# Details: spleen, iv; rat, i.v., 2 min; read-out: Spleen, Mean % Injected Dose/Gram
Parameter Measured: tissue uptake at 2 min (%ID/g)

[[record]]
compound = "CC(C[18F])OC(=O)[C@H]1[C@@H](c2ccc(I)cc2)C[C@@H]2CC[C@H]1N2C (stereo partly shown) [[^18 F] FIPIT 8]"
parameter_measured = "tissue uptake at 2 min"
data_value = 1.58


###

# Assay Name: In vivo tissue distribution of radioactivity after intravenous administration
# Parameters: species or system Sprague Dawley rats
# Details: testis, iv; rat, i.v., 30 min; read-out: Testis, Mean % Injected Dose/Gram
Parameter Measured: tissue uptake at 0.5 h (%ID/g)

[[record]]
compound = "CC(C[18F])OC(=O)[C@H]1[C@@H](c2ccc(I)cc2)C[C@@H]2CC[C@H]1N2C (stereo partly shown) [[^18 F] FIPIT 8]"
parameter_measured = "tissue uptake at 0.5 h"
result_unit = "%ID/g"
data_value = 0.68


###

# Assay Name: In vivo tissue distribution of radioactivity after intravenous administration
# Set-up: species or system Sprague Dawley rats
# Details: bone, iv; rat, i.v., 60 min; read-out: Bone, Mean % Injected Dose/Gram
Parameter Measured: tissue uptake at 1 h (%ID/g)

[[record]]
compound = "CC(C[18F])OC(=O)[C@H]1[C@@H](c2ccc(I)cc2)C[C@@H]2CC[C@H]1N2C (stereo partly shown) [[^18 F] FIPIT 8]"
data_value = 0.17


###

# Assay Name: In vivo tissue distribution of radioactivity after intravenous administration
# Parameters: species or system Sprague Dawley rats
# Details: lung, iv; rat, i.v., 60 min; read-out: Lung, Mean % Injected Dose/Gram
Parameter Measured: tissue uptake at 1 h (%ID/g)

[[record]]
molecule = "CC(C[18F])OC(=O)[C@H]1[C@@H](c2ccc(I)cc2)C[C@@H]2CC[C@H]1N2C (stereo partly shown) [[^18 F] FIPIT 8]"
parameter_measured = "tissue uptake at 1 h"
data_value = 0.4


###

# Assay Name: In vivo tissue distribution of radioactivity after intravenous administration
# Set-up: species or system Sprague Dawley rats
# Details: heart, iv; rat, i.v., 120 min; read-out: Heart, Mean % Injected Dose/Gram
Parameter Measured: tissue uptake at 2 h

[[record]]
compound = "CC(C[18F])OC(=O)[C@H]1[C@@H](c2ccc(I)cc2)C[C@@H]2CC[C@H]1N2C (stereo partly shown) [[^18 F] FIPIT 8]"
data_value = "0.12 %ID/g"


###

# Assay Name: In vivo tissue distribution of radioactivity after intravenous administration
# Set-up: species or system Sprague Dawley rats
# Details: spleen, iv; rat, i.v., 120 min; read-out: Spleen, Mean % Injected Dose/Gram
Parameter Measured: tissue uptake at 2 h (%ID/g)

[[record]]
molecule = "CC(C[18F])OC(=O)[C@H]1[C@@H](c2ccc(I)cc2)C[C@@H]2CC[C@H]1N2C (stereo partly shown) [[^18 F] FIPIT 8]"
parameter_measured = "tissue uptake at 2 h"
data_value = 0.38


###

# Assay Name: In vivo tissue distribution of radioactivity after intravenous administration
# Parameters: species or system Sprague Dawley rats
# Details: cortex, iv; rat, i.v., 60 min; read-out: Cortex (Cx), Mean % Injected Dose/Gram
# Protocol: In vivo distribution of a compound of the invention, [^18 F]-2β-carbo-2'-fluoroisopropoxy-3β-(4-iodophenyl)tropane (FIPIT) 8 (X=4-iodophenyl; Y=1'fluoro-isopropoxy) was measured, as well as brain PET imaging to determine suitability of the compound as a label. […] These studies provided a calculated binding constant for FIPIT 8 with dopamine transporter of 1.13 nM. […] Region of interest measurements determined striatal to cerebellum ratios to be 3.0 at 190 min post administration. […]
Parameter Measured: tissue uptake at 1 h (%ID/g)

[[record]]
compound = "CC(C[18F])OC(=O)[C@H]1[C@@H](c2ccc(I)cc2)C[C@@H]2CC[C@H]1N2C (stereo partly shown) [[^18 F] FIPIT 8]"
parameter_measured = "tissue uptake at 1 h"
result_unit = "%ID/g"
data_value = 0.28


###

# Assay Name: In vivo tissue distribution of radioactivity after intravenous administration
# Parameters: species or system Sprague Dawley rats
# Details: liver, iv; rat, i.v., 30 min; read-out: Liver, Mean % Injected Dose/Gram
# Protocol: In vivo distribution of a compound of the invention, [^18 F]-2β-carbo-2'-fluoroisopropoxy-3β-(4-iodophenyl)tropane (FIPIT) 8 (X=4-iodophenyl; Y=1'fluoro-isopropoxy) was measured, as well as brain PET imaging to determine suitability of the compound as a label. […] These studies provided a calculated binding constant for FIPIT 8 with dopamine transporter of 1.13 nM. […] Region of interest measurements determined striatal to cerebellum ratios to be 3.0 at 190 min post administration. […]
Parameter Measured: tissue uptake at 0.5 h (%ID/g)

[[record]]
compound = "CC(C[18F])OC(=O)[C@H]1[C@@H](c2ccc(I)cc2)C[C@@H]2CC[C@H]1N2C (stereo partly shown) [[^18 F] FIPIT 8]"
data_value = 3.89


###

# Assay Name: In vivo tissue distribution of radioactivity after intravenous administration
# Set-up: species or system Sprague Dawley rats
# Details: testis, iv; rat, i.v., 60 min; read-out: Testis, Mean % Injected Dose/Gram
Parameter Measured: tissue uptake at 1 h (%ID/g)

[[record]]
molecule = "CC(C[18F])OC(=O)[C@H]1[C@@H](c2ccc(I)cc2)C[C@@H]2CC[C@H]1N2C (stereo partly shown) [[^18 F] FIPIT 8]"
result_unit = "%ID/g"
data_value = 0.17


###

# Assay Name: In vivo tissue distribution of radioactivity after intravenous administration
# Parameters: species or system Sprague Dawley rats
# Details: heart, iv; rat, i.v., 60 min; read-out: Heart, Mean % Injected Dose/Gram
Parameter Measured: tissue uptake at 1 h (%ID/g)

[[record]]
compound = "CC(C[18F])OC(=O)[C@H]1[C@@H](c2ccc(I)cc2)C[C@@H]2CC[C@H]1N2C (stereo partly shown) [[^18 F] FIPIT 8]"
data_value = 0.1


###

# Assay Name: In vivo tissue distribution of radioactivity after intravenous administration
# Design: species or system Sprague Dawley rats
# Details: muscle, iv; rat, i.v., 60 min; read-out: Muscle, Mean % Injected Dose/Gram
Parameter Measured: tissue uptake at 1 h

[[record]]
molecule = "CC(C[18F])OC(=O)[C@H]1[C@@H](c2ccc(I)cc2)C[C@@H]2CC[C@H]1N2C (stereo partly shown) [[^18 F] FIPIT 8]"
parameter_measured = "tissue uptake at 1 h"
data_value = "0.04 %ID/g"


###

# Assay Name: In vivo tissue distribution of radioactivity after intravenous administration
# Design: species or system Sprague Dawley rats
# Details: brain, iv; rat, i.v., 120 min; read-out: Brain (B), Mean % Injected Dose/Gram
Parameter Measured: tissue uptake at 2 h (%ID/g)

[[record]]
compound = "CC(C[18F])OC(=O)[C@H]1[C@@H](c2ccc(I)cc2)C[C@@H]2CC[C@H]1N2C (stereo partly shown) [[^18 F] FIPIT 8]"
parameter_measured = "tissue uptake at 2 h"
result_unit = "%ID/g"
data_value = 0.28


###

# Assay Name: In vivo tissue distribution of radioactivity after intravenous administration
# Parameters: species or system Sprague Dawley rats
# Details: liver, iv; rat, i.v., 60 min; read-out: Liver, Mean % Injected Dose/Gram
Parameter Measured: tissue uptake at 1 h (%ID/g)

[[record]]
molecule = "CC(C[18F])OC(=O)[C@H]1[C@@H](c2ccc(I)cc2)C[C@@H]2CC[C@H]1N2C (stereo partly shown) [[^18 F] FIPIT 8]"
data_value = 5.2


###

# Assay Name: In vivo tissue distribution of radioactivity after intravenous administration
# Set-up: species or system Sprague Dawley rats
# Details: bone, iv; rat, i.v., 120 min; read-out: Bone, Mean % Injected Dose/Gram
Parameter Measured: tissue uptake at 2 h (%ID/g)

[[record]]
compound = "CC(C[18F])OC(=O)[C@H]1[C@@H](c2ccc(I)cc2)C[C@@H]2CC[C@H]1N2C (stereo partly shown) [[^18 F] FIPIT 8]"
parameter_measured = "tissue uptake at 2 h"
data_value = 0.25


###

# Assay Name: In vivo tissue distribution of radioactivity after intravenous administration
# Design: species or system Sprague Dawley rats
# Details: blood, iv; rat, i.v., 60 min; read-out: Blood, Mean % Injected Dose/Gram
Parameter Measured: tissue uptake at 1 h

[[record]]
molecule = "CC(C[18F])OC(=O)[C@H]1[C@@H](c2ccc(I)cc2)C[C@@H]2CC[C@H]1N2C (stereo partly shown) [[^18 F] FIPIT 8]"
parameter_measured = "tissue uptake at 1 h"
data_value = "0.03 %ID/g"

